Reported Flow-through conc values follow for various binders
tested_system: T1, BMP-12 (UniProt Q7Z4P5 322-450, limits assumed)
T1 construct: also called BMP12/GDF7
T1 sequence (looked up): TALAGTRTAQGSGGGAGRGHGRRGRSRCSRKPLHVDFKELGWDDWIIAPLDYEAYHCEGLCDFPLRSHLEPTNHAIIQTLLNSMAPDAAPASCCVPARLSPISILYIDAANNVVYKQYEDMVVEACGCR
protocol_notes: peptide resin, filter plate; load 4: 25 mM MES pH 6.0
No end group written: not given here.

[
  {
    "binder": "Ac-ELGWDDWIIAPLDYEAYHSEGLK [BMP12 N-trun_1S peptide 749]",
    "Flow-through conc": "0.025 mg/mL"
  },
  {
    "binder": "Ac-LYVSDVGWNDWIVK (not fully specified (residue 3); printed as Ac-LYV**SDVGWNDWIVK; also: ** after V3 not explained) [BMP2 C-trunc_2 peptide 746]",
    "Flow-through conc": "0.029 mg/mL"
  },
  {
    "binder": "Ac-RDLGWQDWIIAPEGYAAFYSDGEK [BMP5 peptide 748]",
    "Flow-through conc": "0.022 mg/mL"
  },
  {
    "binder": "Ac-VAPPGYHAFYSHGEK [BMP2 N-trunc_2 peptide 745]",
    "Flow-through conc": "0.426 mg/mL"
  },
  {
    "binder": "Ac-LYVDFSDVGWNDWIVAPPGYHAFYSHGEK [BMP2 Full peptide 747]",
    "Flow-through conc": "0.035 mg/mL"
  },
  {
    "binder": "Ac-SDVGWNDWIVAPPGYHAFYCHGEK [BMP2 N-trun peptide 750]",
    "Flow-through conc": "0.037 mg/mL"
  },
  {
    "binder": "Ac-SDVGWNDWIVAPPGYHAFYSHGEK [BMP2 N-trun 1S peptide 751]",
    "Flow-through conc": "0.035 mg/mL"
  }
]

The origin of these recorded values is patent US7754689B2.
